Values compiled from PubChem BioAssay (NCI).

Examples of molecules with documented growth inhibition follow.
- protocol: NCI Yeast Anticancer Drug Screen. Data for the cln2 rad14 strain (AID 165);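 also: 0% = growth equal to vehicle treated cultures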
- conditions: S. cerevisiae cln2 rad14 strain, at 50.0 µM, active compounds read high
About 79,000 compounds went through this panel and 15% of them were active in at least one assay; those are over-represented in the sample as a whole.
Numeric only. Scale: %

Consider the following illustrative entries.
1. CCN1CCC(OC(=O)c2ccccc2)(c2nccc3ccccc23)CC1: 9.05
2. Cn1c(=O)n(C)c(=O)n(C)c1=O: -1.55
3. O=C(O)C(F)(F)F.[Ag]: 98.7

Challenge: Data request, read-out growth inhibition, for CCOC(=O)C1OC(C2(C)OC3(OC4(C=CC3O)OC(C(C)C(=O)C(C)C(O)C(C)CC(C)c3c(Cl)cc(C)c(O)c3C(=O)O)C(C)CC4C)C(C)C2OC)CC1O (configuration not stated)
Response given: 22.9

Challenge: Data request, read-out growth inhibition, for O=[N+]([O-])C1CC/C(=N/O)c2nonc21 (configuration not stated)
Response given: 19.6

Challenge: Data request, read-out growth inhibition, for `O=C(O)c1ccc([As](=O)(O)O)cc1[N+](=O)[O-]`
Response given: 1.7

Challenge: Data request, read-out growth inhibition, for `ClCC[Se](Cl)(Cl)c1ccccc1`
Response given: 60.5

Challenge: Data request, read-out growth inhibition, for COc1ccccc1NC1=NCC(C)S1 (configuration not stated)
Response given: 24.4

Challenge: Data request, read-out growth inhibition, for `O=[N+]([O-])/C=C/c1ccc(Cl)cc1`
Response given: 99

Challenge: Data request, read-out growth inhibition, for CC1C(=O)OC2CC[N+]3([O-])CC=C(COC(=O)C(C)(O)C1(C)O)C23 (configuration not stated)
Response given: -5.25

Challenge: Data request, read-out growth inhibition, for `S=C=NCCc1ccccc1`
Response given: 28.1

Challenge: Data request, read-out growth inhibition, for `Cn1c(O)c(C=N)c(=O)n(C)c1=O`
Response given: 7.45
